Assay target: Acetylcholinesterase (Homo sapiens, UniProt P22303)
Sequence (P22303 whole entry): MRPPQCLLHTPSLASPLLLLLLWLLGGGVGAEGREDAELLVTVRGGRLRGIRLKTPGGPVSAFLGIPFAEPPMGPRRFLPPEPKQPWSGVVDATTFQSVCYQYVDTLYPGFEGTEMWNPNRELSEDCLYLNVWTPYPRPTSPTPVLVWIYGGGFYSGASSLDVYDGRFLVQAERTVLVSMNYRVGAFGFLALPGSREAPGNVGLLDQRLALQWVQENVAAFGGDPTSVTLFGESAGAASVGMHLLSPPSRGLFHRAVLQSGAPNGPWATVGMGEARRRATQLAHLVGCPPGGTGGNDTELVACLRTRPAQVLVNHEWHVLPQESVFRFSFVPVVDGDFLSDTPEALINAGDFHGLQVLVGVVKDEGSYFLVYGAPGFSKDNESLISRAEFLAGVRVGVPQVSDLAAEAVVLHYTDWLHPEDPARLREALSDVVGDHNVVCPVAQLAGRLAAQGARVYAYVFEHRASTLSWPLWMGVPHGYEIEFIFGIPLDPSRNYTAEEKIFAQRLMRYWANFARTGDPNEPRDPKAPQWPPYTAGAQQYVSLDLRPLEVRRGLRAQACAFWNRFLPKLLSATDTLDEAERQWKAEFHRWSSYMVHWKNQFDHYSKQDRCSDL
Measurement notes: Binding affinity to AChE (unknown origin) assessed as inhibition constant
Reported endpoint: pKi
Friendly reminder that pKi comes from taking -log10 of the concentration in mol/L.

Could you tell me which pKi is on file for O=C(Oc1cc(OC(=O)N2CCCCC2)cc(C(O)CN2CCCCC2)c1)N1CCCCC1 (stereo unspecified) ? 5.16

----------
Assay target: Cholinesterase (Homo sapiens, UniProt P06276)
Sequence (P06276 whole entry): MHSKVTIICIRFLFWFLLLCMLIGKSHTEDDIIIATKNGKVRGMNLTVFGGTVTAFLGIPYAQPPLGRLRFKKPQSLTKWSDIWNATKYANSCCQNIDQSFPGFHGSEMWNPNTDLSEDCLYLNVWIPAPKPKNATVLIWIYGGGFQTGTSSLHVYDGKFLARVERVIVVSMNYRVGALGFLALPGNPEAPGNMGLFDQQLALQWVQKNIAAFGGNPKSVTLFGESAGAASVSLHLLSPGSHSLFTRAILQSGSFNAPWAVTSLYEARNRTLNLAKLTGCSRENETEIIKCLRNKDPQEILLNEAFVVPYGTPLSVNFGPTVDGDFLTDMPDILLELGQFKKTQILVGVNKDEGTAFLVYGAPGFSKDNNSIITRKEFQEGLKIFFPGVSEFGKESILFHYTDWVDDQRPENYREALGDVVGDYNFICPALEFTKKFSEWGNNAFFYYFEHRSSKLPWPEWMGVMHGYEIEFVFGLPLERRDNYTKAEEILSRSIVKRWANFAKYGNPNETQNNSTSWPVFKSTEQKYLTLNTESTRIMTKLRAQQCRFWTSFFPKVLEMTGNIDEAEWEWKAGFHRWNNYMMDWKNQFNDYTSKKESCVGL
pIC50: −log10 of the molar value.
Use 7 as the dividing line for pIC50, with the line itself on the condition met side and lower values as condition not met.

Worked examples follow.
Compound	Group
CCc1[nH]c2ccccc2c1CCN1CCC[C@H](CC)C1	condition not met
COc1cccc(NC(=O)CN(C)[C@@H](C)C(=O)c2c[nH]c3ccccc23)c1	condition not met
CCN(CC)C(=O)c1ccc2c(c1)nc(Cc1ccc(OC(=O)N3CCC3)cc1)n2CCC(C)C	condition met
CCNC(=S)N/N=C/c1c(OC)cc(OC)c2c(-c3ccccc3)c[nH]c12	condition not met
CCC(CC)CN[C@H](Cc1c[nH]c2ccccc12)C(=O)NCCN1CCc2ccccc2C1	condition not met

Now consider a different compound.
Reported pIC50 reaches at least 7 for CCCCCCNC(=O)Oc1ccc2c(c1)CN1CCc3ccc(/N=N\c4ccccc4)cc3C1N2C (stereo unspecified) ? condition met
